# TARGET: T1, Human TfR-AVI-His (control) (human, UniProt P02786 89-760)
# T1 construct: control protein; also called Avi-His-tagged human TfR; human transferrin receptor
# T1 sequence (P02786 89-760 limits assumed): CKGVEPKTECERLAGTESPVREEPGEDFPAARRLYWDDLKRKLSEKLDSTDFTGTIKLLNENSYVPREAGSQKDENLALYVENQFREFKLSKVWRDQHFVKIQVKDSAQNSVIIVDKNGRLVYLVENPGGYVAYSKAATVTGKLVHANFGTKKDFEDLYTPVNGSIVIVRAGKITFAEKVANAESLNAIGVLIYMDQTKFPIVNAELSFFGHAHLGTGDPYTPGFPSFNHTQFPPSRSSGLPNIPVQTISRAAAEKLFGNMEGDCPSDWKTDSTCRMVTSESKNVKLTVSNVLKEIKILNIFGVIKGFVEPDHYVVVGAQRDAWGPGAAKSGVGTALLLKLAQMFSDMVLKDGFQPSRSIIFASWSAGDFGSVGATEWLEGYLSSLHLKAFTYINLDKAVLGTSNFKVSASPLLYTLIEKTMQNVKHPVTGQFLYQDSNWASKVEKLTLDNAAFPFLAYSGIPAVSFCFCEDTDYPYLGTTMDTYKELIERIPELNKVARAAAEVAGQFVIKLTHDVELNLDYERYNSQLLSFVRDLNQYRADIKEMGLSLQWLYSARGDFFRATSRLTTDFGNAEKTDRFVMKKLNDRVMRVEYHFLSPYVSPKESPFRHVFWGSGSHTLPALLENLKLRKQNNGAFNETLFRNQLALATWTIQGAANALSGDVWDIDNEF
# EXPERIMENTAL_DETAILS: ELISA, hybridoma supernatant
// values below are reported OD450
Answer with the value's number alone.

// worked examples, OD450 included
>>> reported_measurement("CD98HC.04.045 (antibody, V domains shown, hybridoma IgG) VH: QIQLVQSGPELKKPGETVKISCKASGYSITNFGMNWVKQAPGKGLKWMGWVNTYTGEPTYADDFKGRFAFSLETSASTASLQINNLKNEDTATYFCTRSVITYTMDYWGQGTSVTVSS VL: DIQLTQSPSSLSASLGERVSLTCRASQEISGYLSWLQQKPDGTIKRLIYAASTLDSGVPKRFSGSRSGSDYSLTISSLESEDFADYYCLQYASYPRTFGGGTKVEIK")
0.103
>>> reported_measurement("CD98HC.04.047 (antibody, V domains shown, hybridoma IgG) VH: EVQLQESGPSLVKPSQTLSLTCSVTGDSITSGYWNWIRKFPGNKLEYMGYISYSGSTYYNPSLKGRVSITRDTSKNQYYLQLNSVTTEDTATYYCQRHVIYDYTWFAYWGQGTLVTVSA VL: QIVLTQSPAIMSASPGEKVTISCSASSSVGYMYWLQQKPGSSPKPWIYRTSILASGVPARFSGSGSGTSYSLTISSMEAEDAATYYCQQYQSYPLTFGAGTKLELK")
0.0949

**Query** Look up OD450 for this binder: CD98HC.04.058 (antibody, V domains shown, hybridoma IgG) VH: QVQLQQSGAELVRPGVSVKISCKASGYTFTDHTMHWVKQSHARSLEWIGVISTYFGDASYNPKFKGKATMTVDKSSNTAYMELARLTSEDSAIYYCARVGGRLRLGYYFDYWGQGTTLTVSS VL: NIMMTQSPSSLAVSAGEKVTMNCKSSQTVLYSSNQKNYLAWYQQKPGQSPKLLIYWASTRESGVPDRFTGSGSGTDFTLTISSVQVEDLAVYYCHQYLSSYTFGGGTKLEIK
**Result** 0.0976

**Query** What about CD98HC.03.010 (antibody, V domains shown, hybridoma IgG) VH: EVQLQQSGTELVKPGASVKLSCTASGLDIKDTYLHWVKQRPEQGLEWIGKIDPANGNTKYNPKFQGKATITADTSSNTAYLQLSSLTSEDTAVHYCTTPYYSGSSYGDYWGQGTTLTVSS VL: QIVLTQSPAIMSASPGEKVTLTCSASSSVSSSYLYWYQQKPGSSPKLWIYSTSNLASGVPARFSGSGSGTSYSLTISSMEAEDAASYFCHQWSRYPLTFGAGTKLELK ?
**Result** 0.0588

**Query** Also check CD98HC.04.013 (antibody, V domains shown, hybridoma IgG) VH: EVQLVESGGDLGMPGGSLKLSCAASGFALSGYDMSWVRQTPDKRLEWVAYLSSGGGSTYYPYTVKGRFTISRDNAQNTLYLQMSSLKSEDTAIYYCARHSEVRPWFGYWGQGTLVTVSA VL: DIVMSQSPSSLAVSVGEKVTLTCKSSQSLLYSGNQKNYLAWYQQNPGQSPKLLIYWASTRESGVPDRFTGSGSGTDFTLTISSVKAEDLAVYYCQQYYTYPPTFGAGTKLGLK
**Result** 0.0667

**Query** Try CD98HC.03.002 (antibody, V domains shown, hybridoma IgG) VH: DVQLVESGGGLVQPGGSRKLSCAASGFTFSTFGMHWVRQAPEKGLEWVAYISGGSTNIYYADTVKGRFTISRDNPKNTLFLQMTSLRSEDTAMYYCARETTLLATNFDYWGQGTTLTVSS VL: DIQMTQTTSSLSASLGDRVTISCRASQDISNYLNWYQQKPDGTVKLLIYYTSRLHSGVPSRFSGSGSGTDYSLTISNLEQEDIATYFCQQGSTLPRTFGGGTKLEIK next.
**Result** 0.073
